Sourced from patent US20260125400A1

# TARGET ENTITY: TYK2 (Homo sapiens)
# Construct: Degradation of TYK2 in cells was quantitatively measured using Meso Scale Discovery (MSD) technology; endogenous in cells; host or cells: OCI-LY10
# Sequence (P29597 whole entry): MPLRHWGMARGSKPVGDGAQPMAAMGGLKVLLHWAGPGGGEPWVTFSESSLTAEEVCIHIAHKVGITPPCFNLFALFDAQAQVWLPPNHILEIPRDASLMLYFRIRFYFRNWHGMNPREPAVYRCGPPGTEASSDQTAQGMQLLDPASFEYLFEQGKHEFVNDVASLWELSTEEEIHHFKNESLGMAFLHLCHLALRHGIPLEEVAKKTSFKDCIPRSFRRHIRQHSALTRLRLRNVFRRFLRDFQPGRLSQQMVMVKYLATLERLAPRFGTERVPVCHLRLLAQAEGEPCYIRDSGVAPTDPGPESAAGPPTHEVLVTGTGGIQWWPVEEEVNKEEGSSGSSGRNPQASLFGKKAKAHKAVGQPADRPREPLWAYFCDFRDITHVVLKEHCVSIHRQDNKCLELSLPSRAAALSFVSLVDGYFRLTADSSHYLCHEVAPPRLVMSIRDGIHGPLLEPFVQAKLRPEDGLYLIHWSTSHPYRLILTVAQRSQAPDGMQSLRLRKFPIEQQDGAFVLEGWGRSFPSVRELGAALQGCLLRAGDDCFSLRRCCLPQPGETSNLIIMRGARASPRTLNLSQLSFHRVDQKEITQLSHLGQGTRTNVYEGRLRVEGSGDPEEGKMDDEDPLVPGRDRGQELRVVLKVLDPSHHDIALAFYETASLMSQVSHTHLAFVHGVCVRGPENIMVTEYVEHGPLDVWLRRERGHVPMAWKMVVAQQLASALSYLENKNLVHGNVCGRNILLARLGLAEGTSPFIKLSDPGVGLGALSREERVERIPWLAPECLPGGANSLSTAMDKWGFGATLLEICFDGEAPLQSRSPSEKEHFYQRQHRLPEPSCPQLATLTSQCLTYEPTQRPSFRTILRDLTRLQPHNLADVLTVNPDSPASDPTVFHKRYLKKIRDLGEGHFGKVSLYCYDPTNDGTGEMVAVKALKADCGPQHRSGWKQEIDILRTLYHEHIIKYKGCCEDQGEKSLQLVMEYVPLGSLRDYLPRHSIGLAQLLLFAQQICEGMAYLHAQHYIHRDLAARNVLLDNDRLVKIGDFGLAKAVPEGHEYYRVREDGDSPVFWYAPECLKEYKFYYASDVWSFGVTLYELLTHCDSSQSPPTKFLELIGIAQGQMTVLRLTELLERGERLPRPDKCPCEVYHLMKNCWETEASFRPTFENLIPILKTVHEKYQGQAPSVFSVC
# EXPERIMENT DESCRIPTION: TYK2 MSD degradation in OCI-LY10 cells
# Format: cell-based
# STATED CONDITIONS: OCI-LY10 cells, 4 to 24 hours incubation, read-out: TYK2 MSD OCI-LY10 Rel-DC50
In this section we review reported DC50 values for a set of compounds.

# input Short answer please: DC50, TYK2 (Homo sapiens), entry CNc1cc(N2CCc3c(N4CC(CN5CCC(N6CCN(C(=O)c7ccc(Cl)c(N8CCC(=O)NC8=O)c7)CC6)C(F)(F)C5)C4)cccc32)nn2c(C(=O)N[C@@H]3C[C@@H]3F)cnc12 (some centres unmarked) [I-781]
# output > 0.1 µM

# input Short answer please: DC50, TYK2 (Homo sapiens), entry CNc1cc(N2CCc3c(-c4ccc(CN5CC6(CCC(COc7ccc(C8CCC(=O)NC8=O)c(Cl)c7)CC6)C5)cn4)cccc32)nn2c(C(=O)N[C@@H]3C[C@@H]3F)cnc12 (some centres unmarked) [I-463]
# output > 0.1 µM

# input Short answer please: DC50, TYK2 (Homo sapiens), entry CNc1cc(N2CCc3c(-c4cc(CN5CCN(c6cc7c(cc6F)c(N6CCC(=O)NC6=O)nn7C)CC5)ccn4)cccc32)nn2c(C(=O)N[C@@H]3C[C@@H]3F)cnc12 [I-709]
# output < 0.01 µM

# input Short answer please: DC50, TYK2 (Homo sapiens), entry CNc1cc(N2CCc3c(-c4ccc(CN5CCC6(CCN(C(=O)c7cc(F)c(C)c(N8CCC(=O)NC8=O)c7)CC6)C(F)(F)C5)cn4)cccc32)nn2c(C(=O)N[C@@H]3C[C@@H]3F)cnc12 [I-657]
# output < 0.001 µM

# input Short answer please: DC50, TYK2 (Homo sapiens), entry CNc1cc(N2CCc3c(N4CC(CN5CCC6(CCN(C(=O)c7ccc(Cl)c(N8CCC(=O)NC8=O)c7)CC6)C(F)(F)C5)C4)cccc32)nn2c(C(=O)N[C@@H]3C[C@@H]3F)cnc12 [I-783]
# output < 0.01 µM

More entries:
# input Short answer please: DC50, TYK2 (Homo sapiens), entry CNc1cc(N2CCc3c(CCN4CCC(N5CCN(C(=O)c6ccc(Cl)c(N7CCC(=O)NC7=O)c6)CC5)C(F)(F)C4)cccc32)nn2c(C(=O)N[C@@H]3C[C@@H]3F)cnc12 (some centres unmarked) [I-743]
# output < 0.01 µM

# input Short answer please: DC50, TYK2 (Homo sapiens), entry CNc1cc(N2CCc3c(-c4ccc(N5CCC6(CC5)CN(C(=O)c5ccc(C7CCC(=O)NC7=O)c(Cl)c5)C6)cn4)cccc32)nn2c(C(=O)NC3CC3F)cnc12 (mixture of isomers) [I-447]
# output < 0.01 µM

# input Short answer please: DC50, TYK2 (Homo sapiens), entry CNc1cc(N2CCc3c2cccc3C23CC(CN4CCC(N5CC(N6CCN(c7cccc8c7n(C)c(=O)n8C7CCC(=O)NC7=O)CC6)C5)C(F)(F)C4)(C2)C3)nn2c(C(=O)N[C@@H]3C[C@@H]3F)cnc12 (some centres unmarked) [I-429]
# output < 0.01 µM

# input Short answer please: DC50, TYK2 (Homo sapiens), entry CNc1cc(N2CCc3c(-c4ccc(CN5CCC(N6CC(N7CCN(c8ccc9c(c8F)n(C)c(=O)n9C8CCC(=O)NC8=O)CC7)C6)C(F)(F)C5)cn4)cccc32)nn2c(C(=O)N[C@@H]3C[C@@H]3F)cnc12 (some centres unmarked) [I-470]
# output < 0.001 µM

# input Short answer please: DC50, TYK2 (Homo sapiens), entry CNc1cc(N2CCc3c(-c4ccc(CC5CCC6(CC5)CCN(C(=O)c5ccc(Cl)c(N7CCC(=O)NC7=O)c5)CC6)cn4)cccc32)nn2c(C(=O)N[C@@H]3C[C@@H]3F)cnc12 [I-654]
# output < 0.01 µM

# input Short answer please: DC50, TYK2 (Homo sapiens), entry CNc1cc(N2CCc3c(-c4ccc(CN5CCC6(CCN(C(=O)c7cc(C)c(Cl)c(N8CCC(=O)NC8=O)c7)CC6)C(F)(F)C5)cn4)cccc32)nn2c(C(=O)N[C@@H]3C[C@@H]3F)cnc12 [I-655]
# output < 0.01 µM

# input Short answer please: DC50, TYK2 (Homo sapiens), entry CNc1cc(N2CCc3c(C#CCN4CCC(N5CC6(CCN(C(=O)c7ccc(Cl)c(N8CCC(=O)NC8=O)c7)CC6)C5)C(F)(F)C4)cccc32)nn2c(C(=O)N[C@@H]3C[C@@H]3F)cnc12 (some centres unmarked) [I-701]
# output < 0.001 µM

# input Short answer please: DC50, TYK2 (Homo sapiens), entry CNc1cc(-c2cn(CC3CCN(CCC4CCN(C(=O)c5ccc(Cl)c(N6CCC(=O)NC6=O)c5)CC4)CC3)c3ccccc23)nn2c(C(=O)N[C@@H]3C[C@@H]3F)cnc12 [I-771]
# output < 0.01 µM

# input Short answer please: DC50, TYK2 (Homo sapiens), entry CNc1cc(N2CCc3c(-c4ccc(N5CC6(CCN(Cc7ccc(C8CCC(=O)NC8=O)c(Cl)c7)CC6)C5)cn4)cccc32)nn2c(C(=O)NC3CC3F)cnc12 (mixture of isomers) [I-445]
# output < 0.01 µM

# input Short answer please: DC50, TYK2 (Homo sapiens), entry CNc1cc(N2CCc3c(CN4CCC(N5CCC6(CCN(C(=O)c7cc(Cl)c(OC)c(N8CCC(=O)NC8=O)c7)CC6)CC5)C(F)(F)C4)cccc32)nn2c(C(=O)N[C@@H]3C[C@@H]3F)cnc12 (some centres unmarked) [I-764]
# output < 0.01 µM

# input Short answer please: DC50, TYK2 (Homo sapiens), entry CNc1cc(N2CCc3c(CN4CCC(N5CCC(N6CCN(C(=O)c7ccc(Cl)c(N8CCC(=O)NC8=O)c7)CC6)CC5)C(F)(F)C4)cccc32)nn2c(C(=O)N[C@@H]3C[C@@H]3F)cnc12 (some centres unmarked) [I-707]
# output < 0.01 µM

# input Short answer please: DC50, TYK2 (Homo sapiens), entry CNc1cc(N2CCc3c(C#CCN4CCC(N5CCC(C6CCN(c7ccc8c(c7)n(C)c(=O)n8C7CCC(=O)NC7=O)CC6)CC5)C(F)(F)C4)cccc32)nn2c(C(=O)N[C@@H]3C[C@@H]3F)cnc12 (some centres unmarked) [I-467]
# output < 0.01 µM
